Record form. Attribute: folding stability dG unfold. Fill in for each entry.
Test: folding stability dG unfold from chymotrypsin proteolysis; higher = more stable
I only need the number, in kcal/mol, no unit after it.

### Prompt Need folding stability dG unfold of SAGGSPEVKVLLFYDPATGERVVVVVTYDPATGEKKVLVFVESRPELVELVKKLLEDLGYEVEVVPSAGGSA [r2_30_TrMRF] , thanks.
### Response 3.82

### Prompt Need folding stability dG unfold of SAGGSAGGSAGMTITVPITDLEKLKTMPELPVEVIEEGEGPPTATLDASNPELAKQAYSSSAGGSAGGSAGG [r11_65_JUSTAS] , thanks.
### Response 0.117

### Prompt Need folding stability dG unfold of SAGMPETITIKIRNPETGKLYEIEIEKVDGEVKVTIRDVETGKERREITMTPEEVRELLKELGFEVEEVSAG [r5_291_TrROS_Hall] , thanks.
### Response 3.1

### Prompt Need folding stability dG unfold of SAGGSAGGSEYYIYIQIDKNGKIEIVDVVPPGEPMEDMPPEQYDHTIMFPFESPEDALAEILKSAGGSAGGS [r12_452_TrROS] , thanks.
### Response 0.731

###

Assay: folding stability dG unfold from chymotrypsin proteolysis; higher = more stable
Label 1 for high-side folding stability dG unfold (at or above 1 kcal/mol) and -1 for low-side folding stability dG unfold (below it).

### Prompt I'd appreciate it if you could say whether SAGGIVVGEEGVVRITGPGEPVIIPLPENSEVVEIDVPDDGYVRITLRVDGKTVTVDFPSAPPGLTLSAGGS [r16_635_TrMRF] has folding stability dG unfold at least equal to 1 kcal/mol.
### Response -1

### Prompt I'd appreciate it if you could say whether SAGGGSLEKIREAGKKGYLVRIELETGERRVIPIEDLIRDPRFGPDVPLAELRVRRIELLPPDDGLPLSAGG [r13_587_TrMRF] has folding stability dG unfold at least equal to 1 kcal/mol.
### Response -1

### Prompt I'd appreciate it if you could say whether SAGGSAGGMVRFDPAGGRLFLDGVPVELSEVLSVESLEEEGRVRVEALLVDGSRLEFEIPKEALSAGGSAGG [r6_682_JUSTAS] has folding stability dG unfold at least equal to 1 kcal/mol.
### Response 1

### Prompt I'd appreciate it if you could say whether SAGMVIELPNATITIETVPDPSSSNKVYRVTVTAHLPDGSRPVVVLTFPENVPIEEILKEAIKAAEELLSAG [r5_704_JUSTAS] has folding stability dG unfold at least equal to 1 kcal/mol.
### Response 1

### Prompt I'd appreciate it if you could say whether SAGGSAGGSAKITITKEDIVSYDEENKTFTIKLKDGSTIKIRVEKVKDGKIKVYDEDTGKPISAGGSAGGSA [r18_418_TrROS_Hall] has folding stability dG unfold at least equal to 1 kcal/mol.
### Response 1

### Prompt I'd appreciate it if you could say whether SAGGLIEAIKEAIDQAPPGDEEVTIPIRFPNGTFVIEIRREKDKYKIEIEMQNPNGQKQEITITIEVSAGGS [r16_642_TrROS] has folding stability dG unfold at least equal to 1 kcal/mol.
### Response 1

### Prompt I'd appreciate it if you could say whether SAGKVKVEKLEDGTVIVEAEIKDPETDEYIKIFDLVTFNPETGYALVPRLVIKGDKPFTFPVLVKLPKSAGG [r19_289_TrMRF] has folding stability dG unfold at least equal to 1 kcal/mol.
### Response -1

### Prompt I'd appreciate it if you could say whether SAGGNNIMIWIRKNPKEGKRKIMIYTDSPSWVEMIAEEAKDPGFKIVGPMTVEEAAQKMGFPPDLFISAGGS [r16_438_TrROS] has folding stability dG unfold at least equal to 1 kcal/mol.
### Response 1

### Prompt I'd appreciate it if you could say whether SAGGSAGGSAGEFEILSIETEPPNGRVEIAIRFDDWVVVINFDNPNEPELYPVRPDDGIFSAGGSAGGSAGG [r17_145_TrROS] has folding stability dG unfold at least equal to 1 kcal/mol.
### Response 1

### Prompt I'd appreciate it if you could say whether SAGGSEAAPGEKVTITTVTSSVLKTYETPTGTLETESSTSVTTTTVTVPAAAAAAAGVRYSPDPLLSAGGSA [r2_495_JUSTAS] has folding stability dG unfold at least equal to 1 kcal/mol.
### Response -1

### Prompt I'd appreciate it if you could say whether SAGGMGVRVEEKVLATSESSTPDGTPVTFTETETKITLPPGTVVTVKKLLETGGGGRKVLEETTSPLASAGG [r13_898_JUSTAS] has folding stability dG unfold at least equal to 1 kcal/mol.
### Response -1

### Prompt I'd appreciate it if you could say whether SAGGSAGGSKTVEITITRKDGKKLKIEFYPDGYIKIYDSNGKLVKTIKVDPNASIEEILKALKSAGGSAGGS [r12_990_TrROS_Hall] has folding stability dG unfold at least equal to 1 kcal/mol.
### Response 1

### Prompt I'd appreciate it if you could say whether SAGGSAGGSAGMKPNEPDLVLLTTTVTLTTTETTTDEDGNTYTTTTTTTLTTTTLLPRGTSAGGSAGGSAGG [r17_523_TrROS_Hall] has folding stability dG unfold at least equal to 1 kcal/mol.
### Response 1

### Prompt I'd appreciate it if you could say whether SAGGSAGGSAGPMYKLKAELNNKPFEVMINPDMPPDDQIYIRDPGEWIEFNIENMKVEPVSAGGSAGGSAGG [r11_247_TrROS] has folding stability dG unfold at least equal to 1 kcal/mol.
### Response -1

// provenance: the supplement of paper PMC12764529
